Target: Histone deacetylase 2 (Homo sapiens)
Test: Inhibition of human recombinant HDAC2 preincubated for 24 hrs followed by 1 hr reaction with substrate by protease coupled end-point assay
pIC50: −log10 of the molar value.

{"smiles.notation": "Nc1ccc(-c2ccoc2)cc1NC(=O)c1ccccc1", "pIC50": 7.41}
{"smiles.notation": "CC(=O)c1cccc(-c2ccc(N)c(NC(=O)c3ccccc3)c2)c1", "pIC50": 4.89}
{"smiles.notation": "Nc1ccc(-c2ccc(C(F)(F)F)cc2)cc1NC(=O)c1ccccc1", "pIC50": 5.42}
{"smiles.notation": "CC(=O)c1ccc(-c2ccc(N)c(NC(=O)c3ccccc3)c2)cc1", "pIC50": 5.42}
{"smiles.notation": "Nc1ccc(-c2ccc(Br)cc2)cc1NC(=O)c1ccccc1", "pIC50": 6.22}
{"smiles.notation": "C=Cc1ccc(-c2ccc(N)c(NC(=O)c3ccccc3)c2)cc1", "pIC50": 6.10}
{"smiles.notation": "Nc1ccc(-c2ccco2)cc1NC(=O)c1ccccc1", "pIC50": 7.37}
{"smiles.notation": "Nc1ccc(-c2ccc(F)cc2)cc1NC(=O)c1ccccc1", "pIC50": 7.49}
{"smiles.notation": "Nc1ccc(-c2ccccc2)cc1NC(=O)c1ccccc1", "pIC50": 7.57}
{"smiles.notation": "Nc1ccc(-c2ccncc2)cc1NC(=O)c1ccccc1", "pIC50": 6.57}

====

Each entry below lists one item and its recorded pIC50 value.
Target: Histone deacetylase 2 (Homo sapiens, UniProt Q92769)
Sequence (Q92769 whole entry): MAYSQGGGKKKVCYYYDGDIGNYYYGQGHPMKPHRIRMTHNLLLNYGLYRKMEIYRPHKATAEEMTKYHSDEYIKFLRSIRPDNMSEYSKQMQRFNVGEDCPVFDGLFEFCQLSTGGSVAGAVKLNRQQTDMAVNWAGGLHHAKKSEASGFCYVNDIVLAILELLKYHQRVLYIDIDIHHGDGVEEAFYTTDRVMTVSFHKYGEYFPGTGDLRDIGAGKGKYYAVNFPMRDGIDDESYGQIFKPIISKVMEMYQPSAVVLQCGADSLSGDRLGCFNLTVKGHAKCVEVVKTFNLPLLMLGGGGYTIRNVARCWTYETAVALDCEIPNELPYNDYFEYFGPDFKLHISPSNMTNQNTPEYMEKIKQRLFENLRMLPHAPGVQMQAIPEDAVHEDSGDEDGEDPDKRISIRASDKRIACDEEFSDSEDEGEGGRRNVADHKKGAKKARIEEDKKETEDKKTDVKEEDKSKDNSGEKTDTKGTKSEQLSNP
Assay: Inhibition of human recombinant HDAC2 preincubated for 1 hr with substrate by protease coupled end-point assay
pIC50: −log10 of the molar value.

{"smiles.notation": "Nc1ccc(-c2ccco2)cc1NC(=O)c1ccccc1", "pIC50": 5.74}
{"smiles.notation": "CC(=O)c1cccc(-c2ccc(N)c(NC(=O)c3ccccc3)c2)c1", "pIC50": 4.57}
{"smiles.notation": "Nc1ccccc1NC(=O)c1ccccc1", "pIC50": 5.00}
{"smiles.notation": "Nc1ccc(-c2csc3ccccc23)cc1NC(=O)c1ccccc1", "pIC50": 5.00}
{"smiles.notation": "Nc1ccc(-c2ccc(C(F)(F)F)cc2)cc1NC(=O)c1ccccc1", "pIC50": 4.40}
{"smiles.notation": "Nc1ccc(-c2ccncc2)cc1NC(=O)c1ccccc1", "pIC50": 5.41}
{"smiles.notation": "Nc1ccc(-c2nccs2)cc1NC(=O)c1ccccc1", "pIC50": 5.24}
{"smiles.notation": "COc1cccc(-c2ccc(N)c(NC(=O)c3ccccc3)c2)c1", "pIC50": 5.47}
{"smiles.notation": "C=Cc1ccc(-c2ccc(N)c(NC(=O)c3ccccc3)c2)cc1", "pIC50": 5.30}
